All values here come from patent US20260015426A1.

Listing of recorded pKd by entry.
- TEST TARGET: T1, hu-M-IL1RAP construct, positions S21-T367 (extracellular domain of the membrane form of human IL1RAP) (human, UniProt Q9NPH3 21-367)
- T1 construct: Biotinylated when captured on the Biacore chip
- T1 sequence: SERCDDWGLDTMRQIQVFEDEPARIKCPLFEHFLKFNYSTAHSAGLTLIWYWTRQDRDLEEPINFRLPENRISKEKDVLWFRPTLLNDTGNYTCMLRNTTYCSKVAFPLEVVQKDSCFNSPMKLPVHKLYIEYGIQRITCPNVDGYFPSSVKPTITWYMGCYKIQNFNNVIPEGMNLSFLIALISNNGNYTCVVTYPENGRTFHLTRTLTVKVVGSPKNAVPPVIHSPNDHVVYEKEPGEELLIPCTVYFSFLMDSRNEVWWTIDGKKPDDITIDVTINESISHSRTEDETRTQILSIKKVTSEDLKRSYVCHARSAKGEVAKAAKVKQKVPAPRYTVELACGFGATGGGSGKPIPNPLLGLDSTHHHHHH
- ASSAY REMARKS: BLI (OCTET), mAb captured, 25 C
Worth noting: pKd values are minus log10 of concentrations stated in mol/L.

// known answers, use as guide
m11C5_C59Y (antibody, mouse IgG2a, V domains shown, Murine IgG2a constant domains) VH: EVQLVESGGGLVKPGGSLKLSCAASGFTFSNYAMSWVRQTPEKRLEWVATVTEGGDYNYYLDDVKGRFTISRDNANDNLYLQMSHLKSEDSARYYCARDRWPYFFDYWGQGTTLTVSS VL: DIQMTQSPASLSVSVGETVTITCRASENIYSNLAWYQQKQGRSPQLLVYGAKNLADGVPSRFSGSGSGTQYSLNINSLQSEDFGTYYCQHFWTTPRTFGGGTKLEIK
9.28
c11C5_C59A (antibody, IgG1, V domains shown, Murine VL and VH, human CL and IgG1 CH1-CH3 domains) VH: EVQLVESGGGLVKPGGSLKLSCAASGFTFSNYAMSWVRQTPEKRLEWVATVTEGGDYNYALDDVKGRFTISRDNANDNLYLQMSHLKSEDSARYYCARDRWPYFFDYWGQGTTLTVSS VL: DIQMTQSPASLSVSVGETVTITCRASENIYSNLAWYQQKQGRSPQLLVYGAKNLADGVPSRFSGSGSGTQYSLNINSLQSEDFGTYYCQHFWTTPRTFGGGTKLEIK
9.12

Quickly give me recorded pKd for h11C5_C59Y (C59Y variant of h11C5) (antibody, human IgG1, V domains shown, Human IgG1/kappa constant domains) VH: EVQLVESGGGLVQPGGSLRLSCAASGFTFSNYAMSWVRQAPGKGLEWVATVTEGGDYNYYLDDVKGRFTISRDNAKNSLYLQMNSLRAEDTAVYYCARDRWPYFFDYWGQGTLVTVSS VL: DIQMTQSPSSLSASVGDRVTITCRASENIYSNLAWYQQKPGKAPKLLVYGAKNLADGVPSRFSGSGSGTDYTLTISSLQPEDFATYYCQHFWTTPRTFGGGTKVEIK
8.87
